Biological target: T1, TNFR1 (Homo sapiens, UniProt P19438)
T1 chain: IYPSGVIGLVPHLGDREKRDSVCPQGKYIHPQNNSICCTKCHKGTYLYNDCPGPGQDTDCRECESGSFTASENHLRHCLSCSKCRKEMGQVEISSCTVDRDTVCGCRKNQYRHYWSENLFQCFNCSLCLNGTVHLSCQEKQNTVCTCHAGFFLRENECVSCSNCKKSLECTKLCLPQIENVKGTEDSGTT
Test: yeast display SC50

- binder: "E34L (designed binder) SMEEEVEKAAKEYEKKKKEAIEKHLEKLKAKDKLAAERFLKELEEAAKEYAKDEAKTMSEEEAKRRAKKYKEKVLLSELSEEEQKEIKEAEEKLVRTILKYVEEAAK"
  apparent Kd (screen) / nM: 0.446
- binder: "K64F (designed binder) SMEEEVEKAAKEYEKKKKEAIEKHLEKLKAKDKEAAERFLKELEEAAKEYAKDEAKTMSEEEAFRRAKKYKEKVLLSELSEEEQKEIKEAEEKLVRTILKYVEEAAK"
  apparent Kd (screen) / nM: 0.49
- binder: "A30K (designed binder) SMEEEVEKAAKEYEKKKKEAIEKHLEKLKKKDKEAAERFLKELEEAAKEYAKDEAKTMSEEEAKRRAKKYKEKVLLSELSEEEQKEIKEAEEKLVRTILKYVEEAAK"
  apparent Kd (screen) / nM: 0.956
- binder: "K71V (designed binder) SMEEEVEKAAKEYEKKKKEAIEKHLEKLKAKDKEAAERFLKELEEAAKEYAKDEAKTMSEEEAKRRAKKYVEKVLLSELSEEEQKEIKEAEEKLVRTILKYVEEAAK"
  apparent Kd (screen) / nM: 0.446
